Test system: CCRF-CEM
protocol-text: Antiproliferative activity against human CCRF-CEM cells assessed as reduction in cell viability after 72 hrs by MTT assay
Format: functional, cell-based
pIC50: −log10 of the molar value.
quantity-measured: pIC50

Consider the worked cases shown below.
compound | pIC50
COc1cc(-c2cccn2-c2cc(OC)c(OC)c(OC)c2)ccc1C | 5.55
COc1ccc(-c2cccn2-c2cc(OC)c(OC)c(OC)c2)cc1 | 5.60
COc1cc(-c2c[nH]cc2-c2ccc(C)cc2)cc(OC)c1OC | 7.33
CCSc1ccc(-c2c[nH]cc2-c2cc(OC)c(OC)c(OC)c2)cc1 | 5.51
COc1ccc(-c2c[nH]cc2-c2cc(OC)c(OC)c(OC)c2)cc1F | 7.28

1 = COc1cc(-c2c[nH]cc2-c2ccc(OC(F)(F)F)cc2)cc(OC)c1OC
2 = COc1ccc(-c2cccn2-c2cc(OC)c(OC)c(OC)c2)cc1F
3 = COc1cc(-c2c[nH]cc2-c2ccc3ccccc3c2)cc(OC)c1OC
## Task I would appreciate it if you could sort these 3 compounds by pIC50, starting from the smallest number. List the labels, following the order given in the request.
## Result 1, 2, 3

I = CCCc1ccc(-c2cccn2-c2cc(OC)c(OC)c(OC)c2)cc1
II = CCOc1ccc(-c2c[nH]cc2-c2cc(OC)c(OC)c(OC)c2)cc1F
III = CCOc1ccc(-n2cccc2-c2cc(OC)c(OC)c(OC)c2)cc1
IV = COc1cc(-n2cccc2-c2ccc3ccccc3c2)cc(OC)c1OC
## Task Place the items in sequence of falling pIC50. Submit the labels in the order that the ranking request calls for.
## Result II, IV, III, I
(II: 8.12, IV: 5.88, III: 5.52, I: 5.31)

----------
Species on record: Bos taurus
protocol-text: Displacement of [3H]colchicine from bovine brain tubulin at 5 uM by DEAE-cellulose filter method relative to control
Type: tissue-based
quantity-measured: inhibition (%)

Some solved cases for reference:
compound | inhibition [%]
COc1cc(-c2cccn2-c2ccc3ccccc3c2)cc(OC)c1OC | 70
CCOc1ccc(-c2cccn2-c2cc(OC)c(OC)c(OC)c2)cc1 | 63
COc1cc(-n2cccc2-c2ccc(C)cc2)cc(OC)c1OC | 60

P = CCOc1ccc(-n2cccc2-c2cc(OC)c(OC)c(OC)c2)cc1
Q = CCOc1ccc(-c2c[nH]cc2-c2cc(OC)c(OC)c(OC)c2)cc1Cl
## Task Hi! Which is lower in terms of inhibition, the first one P or the second one Q ? Which one? Tell me its label.
## Result P
(P: 57%, Q: 90%)

----------
Test system: CCRF-CEM
protocol-text: Antiproliferative activity against human CCRF-CEM cells assessed as reduction in cell viability after 72 hrs by MTT assay
Type: functional, cell-based
pIC50: −log10 of the molar value.
quantity-measured: pIC50

compound | pIC50
CCSc1ccc(-c2cccn2-c2cc(OC)c(OC)c(OC)c2)cc1 | 5.33
COc1cc(-c2cccn2-c2ccc(N(C)C)cc2)cc(OC)c1OC | 5.41
CCc1ccc(-c2cccn2-c2cc(OC)c(OC)c(OC)c2)cc1 | 5.52
CCCOc1ccc(-c2c[nH]cc2-c2cc(OC)c(OC)c(OC)c2)cc1 | 5.37
CCc1ccc(-n2cccc2-c2cc(OC)c(OC)c(OC)c2)cc1 | 5.37
